Could you please report measured Drug loading concentration for the items listed next?
assay: Encapsulation rate, drug loading concentration and total RNA concentration detection (RiboGreen); type: physicochemical; details: LNP formulation of the named lipid
Field: numeric (µg/mL). Do not append units.

Memo: CCCCCCCCCCOC(=O)CCCN(CCCCCC(=O)OCC(CCCCCCCC)CCCCCCCC)CCOC(=O)SCCCN(C)C [YK-218] , reported Drug loading concentration: 36.50

For reference, reported Drug loading concentration for CCCCCCCCC(CCCCCCCC)OC(=O)CCCCCN(CCCCCC(=O)OC(CCCCCCCC)CCCCCCCC)CCN(C)CCNC [YK-224] stands at 38.81

Per the records, this compound ( CCCCCCCCCCCOC(=O)CCCCCN(CCCCCCCC(=O)OC(CCCCCCCC)CCCCCCCC)CCN(C)CCOC [YK-215] ) has Drug loading concentration equal to 29.30

The compound CCCCCCC(CCCCCC)CCOC(=O)CCCCCN(CCCCCC(=O)OCCC(CCCCCC)CCCCCC)CCN(C)CCO [YK-211] showed Drug loading concentration equal to 42.91

Lookup result for CCCCCCCCC(CCCCCC)C(=O)OCCCCCCN(CCCCO)CCCCCCOC(=O)C(CCCCCC)CCCCCCCC (stereo not shown) [ALC-0315, reference compound] ; measured Drug loading concentration: 26.05

Entry CCCCCCCCCCCOC(=O)CCCCCN(CCCCCCCC(=O)OC(CCCCCCCC)CCCCCCCC)CCN(C)CCNC [YK-222] , Drug loading concentration reported as 25.78

Drug loading concentration reading for CCCCCCCCCCCOC(=O)CCCCCN(CCCCCCCC(=O)OCC(CCCCCCCC)CCCCCCCC)CCN(C)CCO [YK-202] : 37.08
